- Tested Target: KRAS^G12C (Homo sapiens, UniProt P01116, C118A/G12C)
- Sequence (P01116 1-169 isoform P01116-2 G12C/C118A): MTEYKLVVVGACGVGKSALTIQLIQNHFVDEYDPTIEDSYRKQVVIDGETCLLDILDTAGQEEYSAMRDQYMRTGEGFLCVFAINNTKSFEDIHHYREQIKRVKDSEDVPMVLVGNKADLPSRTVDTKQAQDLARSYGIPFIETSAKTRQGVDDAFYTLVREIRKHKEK
- Assay Procedure: Coupled Nucleotide Exchange Assay
- Assay type: biochemical
- Conditions Used: GDP-bound KRAS (aa 1-169) G12C/C118A; 2 h compound pre-incubation; SOS-mediated exchange, 30 min; cRAF binding (AlphaLISA)
Catalogue of pIC50 readings, one per entry.
Please treat pIC50 as minus the base-10 logarithm of the molar concentration.

Use these answered entries as a reference point.
C=CC(=O)N1CCN([C@@H]2CN(c3cc(N4CCC5(CC4)OCCc4ncsc45)nc(C(F)(F)F)n3)[C@@H]2C)CC1 [Compound 3-002] ... 6.50
C=CC(=O)N1CCN([C@@H]2CN(c3cc(N4CCC5(CC4)OCC(CO)n4ncc(C)c45)nc(C(F)(F)F)n3)[C@@H]2C)CC1 (some centres unmarked) [Compound 3-081] ... 7.20
C=CC(=O)N1CCN([C@@H]2CN(c3cc(N4CCC5(CC4)CC5CN4CCCC4)nc(C(F)(F)F)n3)[C@@H]2C)CC1 (some centres unmarked) [Compound 3-023] ... 5.14
C=CC(=O)N1CCN(C2CN(c3cc(N4CCC5(C=C[C@H](C)O5)CC4)nc(C(F)(F)F)c3C#N)C2)CC1 [Compound 3-068-2] ... 5.81
C=CC(=O)N1CCN([C@@H]2CN(c3cc(N4CCC5(CC4)OCc4ncsc45)nc(C(F)(F)F)n3)[C@@H]2C)CC1 [Compound 3-001] ... 6.42
C=CC(=O)N1CCN([C@@H]2CN(c3cc(N4CCC5(C=CCO5)CC4)nc(C(F)F)n3)[C@@H]2C)CC1 [Compound 3-012] ... 5.60

Exercise: I have this compound here, C=CC(=O)N1CCN([C@@H]2CN(c3cc(N4CCC5(C=CCO5)CC4)nc(C(F)(F)F)c3C#N)[C@@H]2C)CC1 [Compound 3-010] , and I need its recorded pIC50.
Solution: 6.18

Exercise: I have this compound here, C=CC(=O)N1CCN(C2CN(c3cc(N4CCC5(CCCO5)CC4)nc(C(F)(F)F)c3C#N)C2)CC1 [Compound 3-039] , and I need its recorded pIC50.
Solution: 5.78

Exercise: I have this compound here, C=CC(=O)N1CCN(C2CN(c3cc(N4CCC5(CC4)CC5)nc(C(F)(F)F)c3C#N)C2)CC1 [Compound 3-038] , and I need its recorded pIC50.
Solution: 5.24

Exercise: I have this compound here, C=CC(=O)N1CCN(C2CN(c3cc(N4CCC5(CC4)COCCO5)nc(C(F)(F)F)c3C#N)C2)CC1 [Compound 3-024] , and I need its recorded pIC50.
Solution: 5.21

Exercise: I have this compound here, C=CC(=O)N1CCN([C@@H]2CN(c3cc(N4CCC5(CC4)OCCC=C5C)nc(C(F)(F)F)n3)[C@@H]2C)CC1 [Compound 3-008] , and I need its recorded pIC50.
Solution: 6.56

* * *

- Tested Target: KRAS^G12C (Homo sapiens, UniProt P01116, C118A/G12C)
- Assay Procedure: Coupled Nucleotide Exchange Assay
- Conditions Used: GDP-bound KRAS (aa 1-169) G12C/C118A; 2 h compound pre-incubation; SOS-mediated exchange, 30 min; cRAF binding (AlphaLISA)
just bin them by IC50: low: < 100 nM; moderate: ≥ 100 nM and < 1000 nM; high: ≥ 1000 nM

C=CC(=O)N1CCN([C@@H]2CN(c3cc(N4CCC5(CC4)OCC=C5C)nc(C(F)F)n3)[C@@H]2C)CC1 ... moderate

Exercise: # bin label for C=CC(=O)N1CCN(C2CN(c3cc(N4C5CCC4CC4(CCCO4)C5)nc(C(F)(F)F)n3)C2)CC1 (stereo not drawn)
Solution: high

Exercise: # bin label for C=CC(=O)N1CCN([C@@H]2CN(c3cc(N4CCC5(OCC=C5C)C(C)C4)nc(C(F)(F)F)n3)[C@@H]2C)CC1 (relative stereo)
Solution: moderate

Exercise: # bin label for C=CC(=O)N1CCN([C@@H]2CN(c3cc(N4CCC5(CC4)c4c(C)ccnc4C4(COC4)C5F)nc(C(F)(F)F)n3)[C@@H]2C)CC1 (stereo partly drawn)
Solution: moderate

Exercise: # bin label for C=CC(=O)N1CCN(C2CN(c3cc(N4CCC5(CC4)c4ccccc4C(=O)N5C)nc(C(F)(F)F)n3)C2)CC1
Solution: high

Exercise: # bin label for C=CC(=O)N1CCN([C@@H]2CN(c3cc(N4CC[C@]5(C[C@H]4C)OC[C@@H](CO)n4ncc(C)c45)nc(C(F)(F)F)n3)[C@@H]2C)CC1 (single isomer, unassigned)
Solution: low

Exercise: # bin label for C=CC(=O)N1CCN([C@@H]2CN(c3cc(N4CCC5(CC4)C(=O)C4(COC4)c4nccc(C)c45)nc(C(F)(F)F)n3)[C@@H]2C)CC1
Solution: low

Exercise: # bin label for C=CC(=O)N1CCN(C2CN(c3cc(N4CCC5(CC4)O[C@H](C)C=C5Cl)nc(C(F)(F)F)c3C#N)C2)CC1 (single isomer, unassigned)
Solution: moderate

Exercise: # bin label for C=CC(=O)N1CCN(C2CN(c3cc(N4CCC5(CC4)OC(C)C=C5C)nc(C(F)(F)F)c3C#N)C2)CC1 (single isomer, unassigned) [Compound 3-054-1]
Solution: moderate

Exercise: # bin label for C=CC(=O)N1CCN([C@@H]2CN(c3cc(N4C5CCC4CC4(CCCO4)C5)nc(C(F)(F)F)n3)[C@@H]2C)CC1 (stereo partly drawn)
Solution: high

Exercise: # bin label for C=CC(=O)N1CCN([C@@H]2CN(c3cc(N4CCC5(CC4)C(C)=CCN5C)nc(C(F)(F)F)n3)[C@@H]2C)CC1
Solution: high

Exercise: # bin label for C=CC(=O)N1CCN([C@@H]2CN(c3cc(N4CC[C@]5(C[C@H]4C)OCCn4ncc(C)c45)nc(C(F)(F)F)n3)[C@@H]2C)CC1
Solution: low
